# System: Staphylococcus aureus
# Run description: Antibacterial activity against 10^5 CFU/mL quinolone-resistant Staphylococcus aureus CCARM 3519 assessed as inhibition of bacterial growth after 24 hrs by microtiter enzyme-linked immunosorbent assay
# Format: functional
# Experimental context: CCARM 3519, 24 h
Observed property: MIC (µg/mL)
Answers are plain numbers, in µg/mL.

Look over these answered cases.
{"Compound structure string": "COc1ccccc1C(=O)/C=C/c1ccc(/C=C2\\SC(=O)N(Cc3ccc(C(=O)O)cc3)C2=O)cc1", "Unit tag": "µg/mL", "Recorded measurement": 2}
{"Compound structure string": "O=C(O)c1ccc(CN2C(=O)S/C(=C\\c3ccc(/C=C/C(=O)c4ccccc4Br)cc3)C2=O)cc1", "Unit tag": "µg/mL", "Recorded measurement": 2}

Please look at the following molecule next.
Value sought: MIC, system Staphylococcus aureus, item Cc1onc(-c2ccccc2)c1C(=O)N[C@@H]1C(=O)N2[C@@H]1SC(C)(C)[C@@H]2C(=O)O . Result: 1

* * *

# Test system: Staphylococcus aureus
# Run description: Antibacterial activity against 10^5 CFU/mL quinolone-resistant Staphylococcus aureus CCARM 3519 assessed as inhibition of bacterial growth after 24 hrs by microtiter enzyme-linked immunosorbent assay
# Type: functional
# Experimental context: CCARM 3519, 24 h
Would you mind telling me the reported MIC of each entry?
Give bare numbers, in mg/L.

Look over these answered cases.
{"Compound structure string": "O=C(O)c1ccc(CN2C(=O)S/C(=C\\c3ccc(/C=C/C(=O)c4cccc(O)c4)cc3)C2=O)cc1", "System under test": "Staphylococcus aureus", "Unit tag": "mg/L", "MIC": 2}
{"Compound structure string": "O=C(O)c1ccc(CN2C(=O)S/C(=C\\c3ccc(/C=C/C(=O)c4ccccc4)cc3)C2=O)cc1", "System under test": "Staphylococcus aureus", "Unit tag": "mg/L", "MIC": 2}

Please look at the following compound next.
Noted for O=C(O)c1ccc(CN2C(=O)S/C(=C\c3ccc(/C=C/C(=O)c4ccccc4Cl)cc3)C2=O)cc1 : its MIC reads 2

* * *

Would you mind telling me the reported MIC of each entry?
# Tested on: Escherichia coli
# Run description: Antibacterial activity against 10^5 CFU/mL Escherichia coli 1682 assessed as inhibition of bacterial growth after 24 hrs by microtiter enzyme-linked immunosorbent assay
# Assay type: functional
# Experimental context: Escherichia coli, 1682, 24 h

{"Compound structure string": "COc1ccc(C(=O)/C=C/c2ccc(/C=C3\\SC(=O)N(Cc4ccc(C(=O)O)cc4)C3=O)cc2)cc1", "Recorded measurement": "> 64 µg/mL"}
{"Compound structure string": "O=C(O)c1ccc(CN2C(=O)S/C(=C\\c3ccc(/C=C/C(=O)c4cccc(O)c4)cc3)C2=O)cc1", "Recorded measurement": "> 64 µg/mL"}
{"Compound structure string": "COC(=O)c1ccc(CN2C(=O)S/C(=C\\c3ccc(/C=C/C(=O)c4ccccc4Cl)cc3)C2=O)cc1", "Recorded measurement": "> 64 µg/mL"}
{"Compound structure string": "COC(=O)c1ccc(CN2C(=O)S/C(=C\\c3ccc(/C=C/C(=O)c4ccc(OC)cc4)cc3)C2=O)cc1", "Recorded measurement": "> 64 µg/mL"}
{"Compound structure string": "Cc1ccc(C(=O)/C=C/c2ccc(/C=C3\\SC(=O)N(Cc4ccc(C(=O)O)cc4)C3=O)cc2)c(C)c1", "Recorded measurement": "> 64 µg/mL"}
{"Compound structure string": "O=C(O)c1ccc(CN2C(=O)S/C(=C\\c3ccc(/C=C/C(=O)c4ccccc4F)cc3)C2=O)cc1", "Recorded measurement": "> 64 µg/mL"}

For every item in the list below, what is its measured MIC?
1. O=C(O)c1ccc(CN2C(=O)S/C(=C\c3ccc(/C=C/C(=O)c4ccc5ccccc5c4)cc3)C2=O)cc1
2. O=C(O)c1ccc(CN2C(=O)S/C(=C\c3ccc(/C=C/C(=O)c4ccc(Br)cc4)cc3)C2=O)cc1

1: > 64 µg/mL; 2: > 64 µg/mL

* * *

# Tested on: Escherichia coli
# Run description: Antibacterial activity against 10^5 CFU/mL Escherichia coli 1682 assessed as inhibition of bacterial growth after 24 hrs by microtiter enzyme-linked immunosorbent assay
# Format: functional
# Experimental context: Escherichia coli, 1682, 24 h
Observed property: MIC

{"Compound structure string": "COC(=O)c1ccc(CN2C(=O)S/C(=C\\c3ccc(/C=C/C(=O)c4ccccc4O)cc3)C2=O)cc1", "System under test": "Escherichia coli", "Recorded measurement": "> 64 µg/mL"}
{"Compound structure string": "COc1ccccc1C(=O)/C=C/c1ccc(/C=C2\\SC(=O)N(Cc3ccc(C(=O)O)cc3)C2=O)cc1", "System under test": "Escherichia coli", "Recorded measurement": "> 64 µg/mL"}
{"Compound structure string": "COC(=O)c1ccc(CN2C(=O)S/C(=C\\c3ccc(/C=C/C(=O)c4ccccc4)cc3)C2=O)cc1", "System under test": "Escherichia coli", "Recorded measurement": "> 64 µg/mL"}
{"Compound structure string": "O=C(O)c1ccc(CN2C(=O)S/C(=C\\c3ccc(/C=C/C(=O)c4ccc(O)cc4)cc3)C2=O)cc1", "System under test": "Escherichia coli", "Recorded measurement": "> 64 µg/mL"}
{"Compound structure string": "COC(=O)c1ccc(CN2C(=O)S/C(=C\\c3ccc(/C=C/C(=O)c4ccc(Cl)cc4Cl)cc3)C2=O)cc1", "System under test": "Escherichia coli", "Recorded measurement": "> 64 µg/mL"}

For every item in the list below, what is its measured MIC?
1. O=C(O)c1ccc(CN2C(=O)S/C(=C\c3ccc(/C=C/C(=O)c4ccccc4O)cc3)C2=O)cc1
2. COC(=O)c1ccc(CN2C(=O)S/C(=C\c3ccc(/C=C/C(=O)c4cccc(Br)c4)cc3)C2=O)cc1
3. O=C(O)c1ccc(CN2C(=O)S/C(=C\c3ccc(/C=C/C(=O)c4cccc(Br)c4)cc3)C2=O)cc1
4. O=C(O)c1ccc(CN2C(=O)S/C(=C\c3ccc(/C=C/C(=O)c4cccc(Cl)c4)cc3)C2=O)cc1

> 64 µg/mL
> 64 µg/mL
> 64 µg/mL
> 64 µg/mL

* * *

# Test system: Escherichia coli
# Run description: Antibacterial activity against 10^5 CFU/mL Escherichia coli 1356 assessed as inhibition of bacterial growth after 24 hrs by microtiter enzyme-linked immunosorbent assay
# Format: functional
# Experimental context: Escherichia coli, 1356, 24 h
Observed property: MIC

Look over these answered cases.
{"Compound structure string": "COc1ccccc1C(=O)/C=C/c1ccc(/C=C2\\SC(=O)N(Cc3ccc(C(=O)O)cc3)C2=O)cc1", "MIC": "> 64 µg/mL"}
{"Compound structure string": "Cc1ccc(C(=O)/C=C/c2ccc(/C=C3\\SC(=O)N(Cc4ccc(C(=O)O)cc4)C3=O)cc2)cc1", "MIC": "> 64 µg/mL"}

Please look at the following molecule next.
Noted for COC(=O)c1ccc(CN2C(=O)S/C(=C\c3ccc(/C=C/C(=O)c4ccccc4F)cc3)C2=O)cc1 : its MIC reads > 64 µg/mL

* * *

# System: Staphylococcus aureus
# Run description: Antibacterial activity against 10^5 CFU/mL methicillin-resistant Staphylococcus aureus CCARM 3506 assessed as inhibition of bacterial growth after 24 hrs by microtiter enzyme-linked immunosorbent assay
# Type: functional
# Experimental context: CCARM 3506, 24 h
Observed property: MIC (µg/mL)
Answers are plain numbers, in µg/mL.

{"Compound structure string": "O=C(O)c1ccc(CN2C(=O)S/C(=C\\c3ccc(/C=C/C(=O)c4ccccc4)cc3)C2=O)cc1", "System under test": "Staphylococcus aureus", "Unit tag": "µg/mL", "Recorded measurement": 0.5}
{"Compound structure string": "CCn1cc(C(=O)O)c(=O)c2cc(F)c(N3CCNCC3)cc21", "System under test": "Staphylococcus aureus", "Unit tag": "µg/mL", "Recorded measurement": 4}
{"Compound structure string": "COc1ccccc1C(=O)/C=C/c1ccc(/C=C2\\SC(=O)N(Cc3ccc(C(=O)O)cc3)C2=O)cc1", "System under test": "Staphylococcus aureus", "Unit tag": "µg/mL", "Recorded measurement": 2}

For every item in the list below, what is its measured MIC?
1. O=C(O)c1ccc(CN2C(=O)S/C(=C\c3ccc(/C=C/C(=O)c4cccc(O)c4)cc3)C2=O)cc1
2. O=C(O)c1ccc(CN2C(=O)S/C(=C\c3ccc(/C=C/C(=O)c4ccccc4Cl)cc3)C2=O)cc1
3. O=C(O)c1ccc(CN2C(=O)S/C(=C\c3ccc(/C=C/C(=O)c4ccccc4Br)cc3)C2=O)cc1

1: 1; 2: 1; 3: 1

* * *

# Tested on: Escherichia coli
# Run description: Antibacterial activity against 10^5 CFU/mL Escherichia coli 1682 assessed as inhibition of bacterial growth after 24 hrs by microtiter enzyme-linked immunosorbent assay
# Type: functional
# Experimental context: Escherichia coli, 1682, 24 h
Observed property: MIC

{"Compound structure string": "O=C(O)c1ccc(CN2C(=O)S/C(=C\\c3ccc(/C=C/C(=O)c4ccc(Cl)cc4Cl)cc3)C2=O)cc1", "System under test": "Escherichia coli", "Observed property": "MIC", "Recorded measurement": "> 64 µg/mL"}
{"Compound structure string": "COC(=O)c1ccc(CN2C(=O)S/C(=C\\c3ccc(/C=C/C(=O)c4ccccc4Br)cc3)C2=O)cc1", "System under test": "Escherichia coli", "Observed property": "MIC", "Recorded measurement": "> 64 µg/mL"}
{"Compound structure string": "COC(=O)c1ccc(CN2C(=O)S/C(=C\\c3ccc(/C=C/C(=O)c4cccc(OC)c4)cc3)C2=O)cc1", "System under test": "Escherichia coli", "Observed property": "MIC", "Recorded measurement": "> 64 µg/mL"}
{"Compound structure string": "CCn1cc(C(=O)O)c(=O)c2cc(F)c(N3CCNCC3)cc21", "System under test": "Escherichia coli", "Observed property": "MIC", "Recorded measurement": "16 µg/mL"}

For every item in the list below, what is its measured MIC?
1. O=C(O)c1ccc(CN2C(=O)S/C(=C\c3ccc(/C=C/C(=O)c4ccc(F)cc4)cc3)C2=O)cc1
2. COC(=O)c1ccc(CN2C(=O)S/C(=C\c3ccc(/C=C/C(=O)c4ccc(C)cc4)cc3)C2=O)cc1

1. > 64 µg/mL
2. > 64 µg/mL
